Hey, just so you know, these numbers are from BindingDB's records for PubMed 2867217.

- system tested: Alpha-2A adrenergic receptor (Cavia porcellus)
- Sequence (Q60474 15-464): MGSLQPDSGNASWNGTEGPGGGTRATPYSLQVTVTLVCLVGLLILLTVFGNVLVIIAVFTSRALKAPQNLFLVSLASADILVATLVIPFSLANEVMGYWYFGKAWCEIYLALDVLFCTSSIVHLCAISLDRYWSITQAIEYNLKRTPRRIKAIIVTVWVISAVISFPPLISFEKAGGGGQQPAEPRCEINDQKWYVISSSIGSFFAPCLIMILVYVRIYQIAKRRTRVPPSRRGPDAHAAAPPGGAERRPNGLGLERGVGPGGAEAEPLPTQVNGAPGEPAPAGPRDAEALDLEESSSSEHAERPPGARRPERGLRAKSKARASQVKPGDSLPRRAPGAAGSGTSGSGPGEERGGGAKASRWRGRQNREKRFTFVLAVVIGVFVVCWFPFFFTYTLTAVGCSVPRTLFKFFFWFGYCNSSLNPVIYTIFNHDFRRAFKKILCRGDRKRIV
observed property: pKi
Here pKi is given on a logarithmic scale as minus log10 of the concentration in mol/L.

Prompt line: Report pKi for CN1CCc2cccc(Cl)c2CC1 [MLS002172470] tested on Alpha-2A adrenergic receptor (Cavia porcellus).
Response line: 7.89

###

- system tested: Alpha-2B adrenergic receptor (Canis lupus familiaris, UniProt Q2MDQ0)
- Sequence (Q2MDQ0 whole entry): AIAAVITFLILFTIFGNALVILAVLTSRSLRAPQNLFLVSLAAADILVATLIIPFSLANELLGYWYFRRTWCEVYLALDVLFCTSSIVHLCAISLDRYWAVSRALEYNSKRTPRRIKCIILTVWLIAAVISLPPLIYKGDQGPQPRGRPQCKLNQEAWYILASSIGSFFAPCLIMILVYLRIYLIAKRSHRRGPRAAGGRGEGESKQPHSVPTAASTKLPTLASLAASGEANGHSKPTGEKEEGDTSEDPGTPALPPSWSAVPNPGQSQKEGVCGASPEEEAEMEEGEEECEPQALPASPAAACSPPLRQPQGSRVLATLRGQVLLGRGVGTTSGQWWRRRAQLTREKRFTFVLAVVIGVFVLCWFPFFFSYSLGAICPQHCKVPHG
observed property: pKi
Here pKi is given on a logarithmic scale as minus log10 of the concentration in mol/L.

Prompt line: Report pKi for CN1CCc2cccc(Cl)c2CC1 [MLS002172470] tested on Alpha-2B adrenergic receptor (Canis lupus familiaris, UniProt Q2MDQ0).
Response line: 7.38
